Test: Cytotoxicity against mouse RAW264.7 cells assessed as inhibition of cell viability at 20 uM after 24 hrs by MTT assay
Format: cell-based
Conditions: read-out: INH
Form field: cytotoxicity at 24 h, 20 µM (one value per entry).
Expressed in %, but write only the number.

>  <SMILES STRUCTURE>
COc1ccc(S(=O)(=O)n2cc3c(n2)C(C)(C)[C@@H]2CC[C@]4(C)[C@H](CC=C5[C@@H]6CC(C)(C)CC[C@]6(C(=O)NCCN6CCCCC6)CC[C@]54C)[C@@]2(C)C3)cc1

>  <cytotoxicity at 24 h, 20 µM [%]>
72.9

$$$$
>  <SMILES STRUCTURE>
CC1(C)CC[C@]2(C(=O)NCCN3CCCCC3)CC[C@]3(C)C(=CC[C@@H]4[C@@]5(C)Cc6cn(S(=O)(=O)c7ccc(F)cc7)nc6C(C)(C)[C@@H]5CC[C@]43C)[C@@H]2C1

>  <cytotoxicity at 24 h, 20 µM [%]>
70.8

$$$$

Name the recorded cytotoxicity at 24 h, 20 µM for Cc1noc(C)c1S(=O)(=O)n1cc2c(n1)C(C)(C)[C@@H]1CC[C@]3(C)[C@H](CC=C4[C@@H]5CC(C)(C)CC[C@]5(C(=O)NCCN5CCCCC5)CC[C@]43C)[C@@]1(C)C2 .
72

* * *

Form field: cytotoxicity at 24 h, 2 µM (one value per entry).
Assay: Cytotoxicity against mouse RAW264.7 cells assessed as inhibition of cell viability at 2 uM after 24 hrs by MTT assay
Assay type: cell-based
Conditions: read-out: INH
Expressed in %, but write only the number.

These recorded examples may help you get a feel for the data.
>  <SMILES STRUCTURE>
CC1(C)CC[C@]2(C(=O)NCCN3CCCCC3)CC[C@]3(C)C(=CC[C@@H]4[C@@]5(C)Cc6c[nH]nc6C(C)(C)[C@@H]5CC[C@]43C)[C@@H]2C1

>  <cytotoxicity at 24 h, 2 µM [%]>
0

$$$$
>  <SMILES STRUCTURE>
CC1(C)CC[C@]2(C(=O)NCCN3CCCCC3)CC[C@]3(C)C(=CC[C@@H]4[C@@]5(C)Cc6cn(S(=O)(=O)c7ccc(Br)cc7)nc6C(C)(C)[C@@H]5CC[C@]43C)[C@@H]2C1

>  <cytotoxicity at 24 h, 2 µM [%]>
0

$$$$
>  <SMILES STRUCTURE>
COc1ccc(S(=O)(=O)n2cc3c(n2)C(C)(C)[C@@H]2CC[C@]4(C)[C@H](CC=C5[C@@H]6CC(C)(C)CC[C@]6(C(=O)NCCN6CCCCC6)CC[C@]54C)[C@@]2(C)C3)cc1

>  <cytotoxicity at 24 h, 2 µM [%]>
0

$$$$

Name the recorded cytotoxicity at 24 h, 2 µM for COc1ccc(S(=O)(=O)n2cc3c(n2)C(C)(C)[C@@H]2CC[C@]4(C)[C@H](CC=C5[C@@H]6CC(C)(C)CC[C@]6(C(=O)NCCN6CCCCC6)CC[C@]54C)[C@@]2(C)C3)cc1OC .
0

Name the recorded cytotoxicity at 24 h, 2 µM for COc1ccc(S(=O)(=O)n2cc3c(n2)C(C)(C)[C@@H]2CC[C@]4(C)[C@H](CC=C5[C@@H]6CC(C)(C)CC[C@]6(C(=O)NC6CCN(Cc7ccccc7)CC6)CC[C@]54C)[C@@]2(C)C3)cc1OC .
0

Name the recorded cytotoxicity at 24 h, 2 µM for CC1(C)CC[C@]2(C(=O)NCCN3CCCCC3)CC[C@]3(C)C(=CC[C@@H]4[C@@]5(C)Cc6cn(S(=O)(=O)c7ccc(F)cc7)nc6C(C)(C)[C@@H]5CC[C@]43C)[C@@H]2C1 .
0

Name the recorded cytotoxicity at 24 h, 2 µM for Cc1noc(C)c1S(=O)(=O)n1cc2c(n1)C(C)(C)[C@@H]1CC[C@]3(C)[C@H](CC=C4[C@@H]5CC(C)(C)CC[C@]5(C(=O)NCCN5CCCCC5)CC[C@]43C)[C@@]1(C)C2 .
0

Name the recorded cytotoxicity at 24 h, 2 µM for COc1ccc(S(=O)(=O)n2cc3c(n2)C(C)(C)[C@@H]2CC[C@]4(C)[C@H](CC=C5[C@@H]6CC(C)(C)CC[C@]6(C(=O)NC6CCN(Cc7ccccc7)CC6)CC[C@]54C)[C@@]2(C)C3)cc1 .
0

* * *

Form field: inhibition at 20 µM (one value per entry).
System: RAW264.7
Assay: Antiosteoclast activity in mouse RAW264.7 cells assessed as inhibition of RANKL-induced osteoclast differentiation at 20 uM after 5 days by TRAP assay
Assay type: functional
Settings: RAW264.7, 120 h
A complete answer gives the number followed by the unit.

>  <SMILES STRUCTURE>
CC1(C)CC[C@]2(C(=O)NCCCN3CCOCC3)CC[C@]3(C)C(=CC[C@@H]4[C@@]5(C)Cc6cnoc6C(C)(C)[C@@H]5CC[C@]43C)[C@@H]2C1

>  <TARGET ENTITY>
RAW264.7

>  <inhibition at 20 µM>
45.9%

$$$$
>  <SMILES STRUCTURE>
CC1(C)CC[C@]2(C(=O)NCCN3CCCCC3)CC[C@]3(C)C(=CC[C@@H]4[C@@]5(C)Cc6cn(S(=O)(=O)c7ccc(C(F)(F)F)cc7)nc6C(C)(C)[C@@H]5CC[C@]43C)[C@@H]2C1

>  <TARGET ENTITY>
RAW264.7

>  <inhibition at 20 µM>
100%

$$$$
>  <SMILES STRUCTURE>
CC1(C)CC[C@]2(C(=O)NCCN3CCCCC3)CC[C@]3(C)C(=CC[C@@H]4[C@@]5(C)Cc6cn(S(=O)(=O)c7ccc(F)cc7)nc6C(C)(C)[C@@H]5CC[C@]43C)[C@@H]2C1

>  <TARGET ENTITY>
RAW264.7

>  <inhibition at 20 µM>
100%

$$$$
>  <SMILES STRUCTURE>
COc1ccc(S(=O)(=O)n2cc3c(n2)C(C)(C)[C@@H]2CC[C@]4(C)[C@H](CC=C5[C@@H]6CC(C)(C)CC[C@]6(C(=O)NCCN6CCCCC6)CC[C@]54C)[C@@]2(C)C3)cc1

>  <TARGET ENTITY>
RAW264.7

>  <inhibition at 20 µM>
100%

$$$$
>  <SMILES STRUCTURE>
Cc1noc(C)c1S(=O)(=O)n1cc2c(n1)C(C)(C)[C@@H]1CC[C@]3(C)[C@H](CC=C4[C@@H]5CC(C)(C)CC[C@]5(C(=O)NCCN5CCCCC5)CC[C@]43C)[C@@]1(C)C2

>  <TARGET ENTITY>
RAW264.7

>  <inhibition at 20 µM>
100%

$$$$

Name the recorded inhibition at 20 µM for CC1(C)CC[C@]2(C(=O)NCCN3CCCCC3)CC[C@]3(C)C(=CC[C@@H]4[C@@]5(C)Cc6cnoc6C(C)(C)[C@@H]5CC[C@]43C)[C@@H]2C1 .
100%

Name the recorded inhibition at 20 µM for CC1(C)CC[C@]2(C(=O)O)CC[C@]3(C)C(=CC[C@@H]4[C@@]5(C)Cc6cnoc6C(C)(C)[C@@H]5CC[C@]43C)[C@@H]2C1 .
100%

Name the recorded inhibition at 20 µM for COc1ccc(S(=O)(=O)n2cc3c(n2)C(C)(C)[C@@H]2CC[C@]4(C)[C@H](CC=C5[C@@H]6CC(C)(C)CC[C@]6(C(=O)NC6CCN(Cc7ccccc7)CC6)CC[C@]54C)[C@@]2(C)C3)cc1 .
100%

Name the recorded inhibition at 20 µM for COc1ccc(S(=O)(=O)n2cc3c(n2)C(C)(C)[C@@H]2CC[C@]4(C)[C@H](CC=C5[C@@H]6CC(C)(C)CC[C@]6(C(=O)NC6CCN(Cc7ccccc7)CC6)CC[C@]54C)[C@@]2(C)C3)cc1OC .
100%

Name the recorded inhibition at 20 µM for CC1(C)CC[C@]2(C(=O)NC3CCN(Cc4ccccc4)CC3)CC[C@]3(C)C(=CC[C@@H]4[C@@]5(C)Cc6cn(S(=O)(=O)c7ccc(C(F)(F)F)cc7)nc6C(C)(C)[C@@H]5CC[C@]43C)[C@@H]2C1 .
82.1%

* * *

Form field: cytotoxicity at 24 h, 10 µM (one value per entry).
Assay: Cytotoxicity against mouse RAW264.7 cells assessed as inhibition of cell viability at 10 uM after 24 hrs by MTT assay
Format: cell-based
Details: read-out: INH
Expressed in %, but write only the number.

These recorded examples may help you get a feel for the data.
>  <SMILES STRUCTURE>
COc1ccc(S(=O)(=O)n2cc3c(n2)C(C)(C)[C@@H]2CC[C@]4(C)[C@H](CC=C5[C@@H]6CC(C)(C)CC[C@]6(C(=O)NCCN6CCCCC6)CC[C@]54C)[C@@]2(C)C3)cc1OC

>  <READING>
52.6

$$$$
>  <SMILES STRUCTURE>
CC1(C)CC[C@]2(C(=O)NCCN3CCCCC3)CC[C@]3(C)C(=CC[C@@H]4[C@@]5(C)Cc6cn(S(=O)(=O)c7ccc(F)cc7)nc6C(C)(C)[C@@H]5CC[C@]43C)[C@@H]2C1

>  <READING>
74

$$$$

Name the recorded cytotoxicity at 24 h, 10 µM for CC1(C)CC[C@]2(C(=O)NCCN3CCCCC3)CC[C@]3(C)C(=CC[C@@H]4[C@@]5(C)Cc6cn(S(=O)(=O)c7ccc(Br)cc7)nc6C(C)(C)[C@@H]5CC[C@]43C)[C@@H]2C1 .
67.2

Hello, the source for this data is ChEMBL document CHEMBL3784938, in case you need it.
